# SYSTEM: DOR (Homo sapiens)
pKi: −log10 of the molar value.

>  <MOLECULE>
O=C(Nc1ccc(Cl)c(C(F)(F)F)c1)[C@@H]1CC=C[C@@H]2CCN(CC3CC3)C(=O)[C@@H]21 (racemic)

>  <pKi>
6.10

$$$$
>  <MOLECULE>
COc1ccccc1CN1CC[C@H]2C=CC[C@@H](C(=O)Nc3ccc(C)c(C(F)(F)F)c3)[C@H]2C1=O (racemic)

>  <pKi>
5.87

$$$$
>  <MOLECULE>
O=C(NCc1ccc(Cl)c(Cl)c1)[C@@H]1CC=C[C@@H]2CCN(CC3CCCCC3)C(=O)[C@@H]21 (racemic)

>  <pKi>
5.89

$$$$
>  <MOLECULE>
O=C(Nc1ccc(Br)c(C(F)(F)F)c1)[C@@H]1CC=C[C@@H]2CCN(CC3CC3)C(=O)[C@@H]21 (racemic)

>  <pKi>
5.89

$$$$

---

# SYSTEM: DOR (Homo sapiens, UniProt P41143)
# Sequence (P41143 whole entry): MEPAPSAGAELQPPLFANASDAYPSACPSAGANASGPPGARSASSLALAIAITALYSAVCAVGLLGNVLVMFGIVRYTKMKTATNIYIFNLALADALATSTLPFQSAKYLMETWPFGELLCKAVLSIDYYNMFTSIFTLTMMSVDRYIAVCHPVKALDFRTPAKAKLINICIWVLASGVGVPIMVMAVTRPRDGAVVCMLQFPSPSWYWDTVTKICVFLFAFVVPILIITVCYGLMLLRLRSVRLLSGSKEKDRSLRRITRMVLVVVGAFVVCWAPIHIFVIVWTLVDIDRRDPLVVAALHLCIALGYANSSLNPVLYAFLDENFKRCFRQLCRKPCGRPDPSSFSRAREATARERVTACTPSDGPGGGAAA
READOUT_NAME: Ki (µM)

>  <COMPOUND>
O=C([C@@H]1CC=C[C@@H]2CCN(c3ccccc3)C(=O)[C@@H]21)N1CCCC1 (racemic)

>  <MEASURE_UNIT>
µM

>  <CMP>
>

>  <DATA_VALUE>
10

$$$$
>  <COMPOUND>
Cc1ccc(CNC(=O)[C@@H]2CC=C[C@@H]3CCN(Cc4ccccc4)C(=O)[C@@H]32)cc1 (racemic)

>  <MEASURE_UNIT>
µM

>  <CMP>
=

>  <DATA_VALUE>
2.36

$$$$
>  <COMPOUND>
O=C(NCc1ccc(Cl)c(Cl)c1)[C@@H]1CC=C[C@@H]2CCN(c3ccccc3)C(=O)[C@@H]21 (racemic)

>  <MEASURE_UNIT>
µM

>  <CMP>
=

>  <DATA_VALUE>
0.103

$$$$
>  <COMPOUND>
COc1ccc(CNC(=O)[C@@H]2CC=C[C@@H]3CCN(Cc4ccccc4)C(=O)[C@@H]32)cc1OC (racemic)

>  <MEASURE_UNIT>
µM

>  <CMP>
>

>  <DATA_VALUE>
10

$$$$
>  <COMPOUND>
Cc1ccc(NC(=O)[C@@H]2CC=C[C@@H]3CCN(Cc4ccccc4)C(=O)[C@@H]32)c(F)c1F (racemic)

>  <MEASURE_UNIT>
µM

>  <CMP>
=

>  <DATA_VALUE>
0.559

$$$$
>  <COMPOUND>
O=C(NCC1CC1)[C@@H]1CC=C[C@@H]2CCN(CC3CC3)C(=O)[C@@H]21 (racemic)

>  <MEASURE_UNIT>
µM

>  <CMP>
=

>  <DATA_VALUE>
5.65

$$$$
>  <COMPOUND>
O=C(Nc1ccc(Cl)c(C(F)(F)F)c1)[C@@H]1CC=C[C@@H]2CN(C3CCCCC3)C(=O)[C@@H]21 (racemic)

>  <MEASURE_UNIT>
µM

>  <CMP>
=

>  <DATA_VALUE>
5.35

$$$$

---

# SYSTEM: KOR (Homo sapiens, UniProt P41145)
# Sequence (P41145 whole entry): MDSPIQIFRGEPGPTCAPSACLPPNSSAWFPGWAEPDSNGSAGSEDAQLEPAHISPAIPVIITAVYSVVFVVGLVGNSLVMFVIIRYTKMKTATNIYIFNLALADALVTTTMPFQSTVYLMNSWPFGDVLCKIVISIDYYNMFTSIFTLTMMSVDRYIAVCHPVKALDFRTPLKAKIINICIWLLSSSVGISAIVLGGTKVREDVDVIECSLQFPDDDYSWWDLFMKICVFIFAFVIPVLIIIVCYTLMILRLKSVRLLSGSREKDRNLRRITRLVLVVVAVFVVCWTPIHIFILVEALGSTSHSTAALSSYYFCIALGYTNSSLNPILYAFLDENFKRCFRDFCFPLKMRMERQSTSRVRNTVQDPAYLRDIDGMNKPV
# PROTOCOL_DETAILS: Opioid secondary binding, KOR (Tables 4, 5, 8, 9)
# APPLIED_CONDITIONS: Opioid secondary binding activity for Formula 10 analogs; read-out: KOR, Ki
Kindly apply the following: met if Ki is less than 3000 nM, not met in every other case.

>  <MOLECULE>
O=C(NCc1ccccc1)[C@@H]1CC=C[C@@H]2CCN(C3CCCCC3)C(=O)[C@@H]21 (racemic) [compound 11918]

>  <CAT>
met

$$$$
>  <MOLECULE>
O=C(Nc1ccc(Cl)cc1C(F)(F)F)[C@@H]1CC=C[C@@H]2CCN(C3CCCCC3)C(=O)[C@@H]21 (racemic) [compound 11858]

>  <CAT>
met

$$$$
>  <MOLECULE>
O=C(Nc1ccccc1)[C@@H]1CC=C[C@@H]2CCN(Cc3ccccc3)C(=O)[C@@H]21 (racemic) [compound 8937]

>  <CAT>
met

$$$$
>  <MOLECULE>
COc1ccccc1CN1CC[C@H]2C=CC[C@@H](C(=O)Nc3ccc(C)c(C(F)(F)F)c3)[C@H]2C1=O (racemic) [compound 13481]

>  <CAT>
met

$$$$
>  <MOLECULE>
O=C(Nc1ccc(C(F)(F)F)cc1)C1CC=CC2CCN(Cc3ccc(Cl)cc3)C(=O)C21 (racemic) [compound 10837]

>  <CAT>
met

$$$$
>  <MOLECULE>
COc1ccc(CNC(=O)[C@@H]2CC=C[C@@H]3CCN(Cc4ccccc4)C(=O)[C@@H]32)cc1 (racemic) [compound 8924]

>  <CAT>
not met

$$$$
>  <MOLECULE>
COc1ccc(NC(=O)[C@@H]2CC=C[C@@H]3CCN(Cc4ccc(Cl)cc4)C(=O)[C@@H]32)cc1 (racemic) [compound 10835]

>  <CAT>
not met

$$$$
>  <MOLECULE>
O=C(Nc1ccc(Br)c(C(F)(F)F)c1)[C@@H]1CC=C[C@@H]2CCN(Cc3ccccc3F)C(=O)[C@@H]21 (racemic) [compound 13478]

>  <CAT>
met

$$$$
>  <MOLECULE>
O=C(Nc1ccc(C(F)(F)F)cc1Cl)[C@@H]1CC=C[C@@H]2CCN(c3ccccc3)C(=O)[C@@H]21 (racemic) [compound 11865]

>  <CAT>
met

$$$$
>  <MOLECULE>
CCOC(=O)CCC(NC(=O)C1CC=CC2CCN(C3CCCCC3)C(=O)C21)C(=O)OCC (mixture of isomers) [compound 11821]

>  <CAT>
not met

$$$$

---

Entries with reported Ki on DOR (Homo sapiens, UniProt P41143)

>  <MOLECULE>
O=C(Nc1ccc(I)cc1)[C@@H]1CC=C[C@@H]2CCN(CC3CC3)C(=O)[C@@H]21 (racemic)

>  <SYSTEM>
DOR (Homo sapiens, UniProt P41143)

>  <Ki (nM)>
1280

$$$$
>  <MOLECULE>
O=C(NC12CC3CC(CC(C3)C1)C2)[C@@H]1CC=C[C@@H]2CCN(CC3CC3)C(=O)[C@@H]21 (racemic)

>  <SYSTEM>
DOR (Homo sapiens, UniProt P41143)

>  <Ki (nM)>
701

$$$$
>  <MOLECULE>
O=C(Nc1cccnc1)[C@@H]1CC=C[C@@H]2CCN(C3CCCCC3)C(=O)[C@@H]21 (racemic)

>  <SYSTEM>
DOR (Homo sapiens, UniProt P41143)

>  <Ki (nM)>
836

$$$$

---

# SYSTEM: UniProt P41145
# PROTOCOL_DETAILS: Opioid secondary binding, KOR (Tables 4, 5, 8, 9)
# APPLIED_CONDITIONS: Opioid secondary binding activity for Formula 10 analogs; read-out: KOR, Ki
Ki listing for selected compounds.

>  <COMPOUND>
O=C(Nc1ccc(Cl)c(C(F)(F)F)c1)[C@@H]1CC=C[C@@H]2CCN(CC3CCCCC3)C(=O)[C@@H]21 (racemic) [compound 11890]

>  <Ki (nM)>
840

$$$$
>  <COMPOUND>
CCCCN1CC[C@H]2C=CC[C@@H](C(=O)Nc3ccccc3)[C@H]2C1=O (racemic) [compound 8940]

>  <Ki (nM)>
677

$$$$
>  <COMPOUND>
CCCCN1CC[C@H]2C=CC[C@@H](C(=O)NC3CCCCC3)[C@H]2C1=O (racemic) [compound 8923]

>  <Ki (nM)>
1030

$$$$
>  <COMPOUND>
O=C(Nc1ccc(Cl)c(C(F)(F)F)c1)[C@@H]1CC=C[C@@H]2CCN(Cc3cccc(Br)c3)C(=O)[C@@H]21 (racemic) [compound 12170]

>  <Ki (nM)>
1460

$$$$

---

# SYSTEM: KOR (Homo sapiens)
# PROTOCOL_DETAILS: Opioid secondary binding, KOR (Tables 4, 5, 8, 9)
# APPLIED_CONDITIONS: Opioid secondary binding activity for Formula 10 analogs; read-out: KOR, Ki
pKi: −log10 of the molar value.
READOUT_NAME: pKi

>  <COMPOUND>
Cc1ccc(NC(=O)[C@@H]2CC=C[C@@H]3CCN(C4CCCCC4)C(=O)[C@@H]32)cc1Cl (racemic)

>  <READOUT_NAME>
pKi

>  <DATA_VALUE>
6.99

$$$$
>  <COMPOUND>
CC(C)N1CCC2C=CCC(C(=O)Nc3cccc(C(F)(F)F)c3)C2C1=O (racemic)

>  <READOUT_NAME>
pKi

>  <DATA_VALUE>
6.21

$$$$
>  <COMPOUND>
CCCCN1CC[C@H]2C=CC[C@@H](C(=O)NCCc3ccccc3)[C@H]2C1=O (racemic)

>  <READOUT_NAME>
pKi

>  <DATA_VALUE>
5.49

$$$$
>  <COMPOUND>
O=C(Nc1c(F)cccc1F)[C@@H]1CC=C[C@@H]2CCN(c3ccccc3)C(=O)[C@@H]21 (racemic)

>  <READOUT_NAME>
pKi

>  <DATA_VALUE>
5.30

$$$$
>  <COMPOUND>
COC(=O)C(C)NC(=O)C1CC=CC2CCN(Cc3ccccc3)C(=O)C21 (mixture of isomers)

>  <READOUT_NAME>
pKi

>  <DATA_VALUE>
5.21

$$$$
>  <COMPOUND>
Cc1cc(NC(=O)[C@@H]2CC=C[C@@H]3CCN(CCc4ccccc4)C(=O)[C@@H]32)ccc1Cl (racemic)

>  <READOUT_NAME>
pKi

>  <DATA_VALUE>
5.39

$$$$
>  <COMPOUND>
O=C(Nc1ccc(Cl)c(C(F)(F)F)c1)[C@@H]1CC=C[C@@H]2CCN(C3CC3)C(=O)[C@@H]21 (racemic)

>  <READOUT_NAME>
pKi

>  <DATA_VALUE>
6.31

$$$$
>  <COMPOUND>
O=C(Nc1cc(C(F)(F)F)ccc1Cl)C1CC=CC2CCN(CCc3ccccc3)C(=O)C21 (racemic)

>  <READOUT_NAME>
pKi

>  <DATA_VALUE>
5.74

$$$$

Source of measurements: patent US8735391B2
